The values you see were collected from paper PMC8570331.

Assay: Proton dissociation and H2O/Cl- exchange constants of the complexes (UV-vis, 1H NMR)
Type: physicochemical
Conditions: UV-vis; I = 0.2 M KNO3; T = 25.0 °C; chloride-free
Each entry below carries its recorded pKa1 of the complex.
A bare number is all that is needed in reply.

# annotated cases, reported pKa1 of the complex shown
>>> quantitative_readout("Cc1c(C)c(C)[c-](C)c1C.O=C(O)[C@H]1CCCC[NH+]1Cc1cc(Cl)c2cccnc2c1[O-].[Cl-].[Cl-].[Rh+3] [RhCp*–HQCl-D-hPro, [RhCp*(HQCl-D-hPro)Cl]Cl]")
10.11
>>> quantitative_readout("Cc1ccc(C(C)C)cc1.O=C(O)[C@H]1CCC[NH+]1Cc1cc(Cl)c2cccnc2c1[O-].[Cl-].[Cl-].[Ru+2] [RuCym–HQCl-D-Pro, [RuCym(HQCl-D-Pro)Cl]Cl]")
8.96
>>> quantitative_readout("Cc1c(C)c(C)[c-](C)c1C.O=C(O)[C@H]1CCC[NH+]1Cc1cc(Cl)c2cccnc2c1[O-].[Cl-].[Cl-].[Rh+3] [RhCp*–HQCl-D-Pro, [RhCp*(HQCl-D-Pro)Cl]Cl]")
10.08

Now take the following compound into account.
Task: Fill blank: measured pKa1 of the complex of the compound Cc1ccc(C(C)C)cc1.O=C(O)[C@H]1CCCC[NH+]1Cc1cc(Cl)c2cccnc2c1[O-].[Cl-].[Cl-].[Ru+2] [RuCym–HQCl-D-hPro, [RuCym(HQCl-D-hPro)Cl]Cl] is ____.
Output: 8.78
